Tested on: Acinetobacter baumannii
measurement-protocol: Antibacterial activity against Acinetobacter baumannii ATCC 19606 incubated for 18 to 24 hrs by broth microdilution method
Format: functional
measurement-setup: time 18-24 hrs
Non-standard residues stand in square brackets, D forms with d. Residues, ends and D or L forms follow the SMILES beside them. Bip = N[C@@H](Cc1ccc(-c2ccccc2)cc1)C(=O)O; 2Nal = N[C@@H](Cc1ccc2ccccc2c1)C(=O)O
measured-parameter: MIC (µM)

compound	comparison-symbol	numeric-readout
CC(C)C[C@H](NC(=O)[C@H](CC(C)C)NC(=O)[C@H](Cc1ccc(O)cc1)NC(=O)[C@H](CCCCN)NC(=O)[C@H](CC(C)C)NC(=O)[C@H](CCCNC(=N)N)NC(=O)[C@H](CCCCN)NC(=O)[C@H](Cc1ccc(-c2ccccc2)cc1)NC(=O)[C@H](CC(C)C)NC(=O)CN)C(N)=O (H-GL[Bip]KRLKYLL-NH2)	=	8
COc1cccc(OC)c1C(=O)N[C@@H]1C(=O)N2[C@@H]1SC(C)(C)[C@@H]2C(=O)O [METHICILLIN]	>	128
CC(C)C[C@H](NC(=O)[C@H](CC(C)C)NC(=O)[C@@H](NC(=O)[C@H](CCCCN)NC(=O)[C@H](CC(C)C)NC(=O)[C@H](CCCNC(=N)N)NC(=O)[C@H](CCCCN)NC(=O)[C@H](Cc1ccc2ccccc2c1)NC(=O)[C@H](CC(C)C)NC(=O)CN)[C@@H](C)O)C(N)=O (H-GL[2Nal]KRLKTLL-NH2)	=	8
NC[C@H]1O[C@H](O[C@H]2[C@H](O)[C@@H](O[C@H]3O[C@H](CO)[C@@H](O)[C@H](N)[C@H]3O)[C@H](N)C[C@@H]2N)[C@H](O)[C@@H](O)[C@@H]1O [KANAMYCIN]	=	8

###

Test system: Escherichia coli
measurement-protocol: Antibacterial activity against Escherichia coli ATCC 25922 incubated for 18 to 24 hrs by broth microdilution method
Format: functional
measurement-setup: time 18-24 hrs
Non-standard residues stand in square brackets, D forms with d. Residues, ends and D or L forms follow the SMILES beside them. Bip = N[C@@H](Cc1ccc(-c2ccccc2)cc1)C(=O)O; pY = N[C@@H](Cc1ccc(OP(=O)(O)O)cc1)C(=O)O; pT = C[C@@H](OP(=O)(O)O)[C@H](N)C(=O)O; 2Nal = N[C@@H](Cc1ccc2ccccc2c1)C(=O)O

compound	comparison-symbol	MIC [µM]
COc1cccc(OC)c1C(=O)N[C@@H]1C(=O)N2[C@@H]1SC(C)(C)[C@@H]2C(=O)O	>	128
C[C@@H](O)[C@H]1C(=O)N2C(C(=O)O)=C(S[C@@H]3CN[C@H](C(=O)N(C)C)C3)[C@H](C)[C@H]12	<	1
CC(C)C[C@H](NC(=O)[C@H](CC(C)C)NC(=O)[C@@H](NC(=O)[C@H](CCCCN)NC(=O)[C@H](Cc1ccc(-c2ccccc2)cc1)NC(=O)[C@H](CCCNC(=N)N)NC(=O)[C@H](CCCCN)NC(=O)[C@H](CC(C)C)NC(=O)[C@H](CC(C)C)NC(=O)CN)[C@@H](C)O)C(N)=O (H-GLLKR[Bip]KTLL-NH2)	=	8
CC(C)C[C@H](NC(=O)[C@H](CC(C)C)NC(=O)[C@@H](NC(=O)[C@H](CCCCN)NC(=O)[C@H](CC(C)C)NC(=O)[C@H](CCCNC(=N)N)NC(=O)[C@H](CCCCN)NC(=O)[C@H](Cc1ccc2ccccc2c1)NC(=O)[C@H](CC(C)C)NC(=O)CN)[C@@H](C)OP(=O)(O)O)C(N)=O (H-GL[2Nal]KRLK[pT]LL-NH2)	=	64
CO[C@H]1/C=C/O[C@@]2(C)Oc3c(C)c(O)c4c(O)c(c(/C=N/N5CCN(C)CC5)c(O)c4c3C2=O)NC(=O)/C(C)=C\C=C\[C@H](C)[C@H](O)[C@@H](C)[C@@H](O)[C@@H](C)[C@H](OC(C)=O)[C@@H]1C	=	8
CC(C)C[C@H](NC(=O)[C@H](CC(C)C)NC(=O)[C@H](Cc1ccc(OP(=O)(O)O)cc1)NC(=O)[C@H](CCCCN)NC(=O)[C@H](Cc1c[nH]c2ccccc12)NC(=O)[C@H](CCCNC(=N)N)NC(=O)[C@H](CCCCN)NC(=O)[C@H](CC(C)C)NC(=O)[C@H](CC(C)C)NC(=O)CN)C(N)=O (H-GLLKRWK[pY]LL-NH2)	=	64
